Lab note: MIC readings collected with S. flexneri, 2A 5503 for the following compounds.
observedProperty: MIC (ng/mL)

compound	systemName	limitQualifier	measuredValue
CN[C@@H]1CN(c2c(F)cc3c(=O)c(C(=O)O)cn(C4CC4)c3c2C)C[C@@H]1CF	S. flexneri, 2A 5503	≤	3
Cc1c(N2C[C@H](CF)[C@H](N)C2)c(F)cc2c(=O)c(C(=O)O)cn(C3CC3)c12	S. flexneri, 2A 5503	≤	3
CN[C@@H]1CN(c2c(F)cc3c(=O)c(C(=O)O)cn([C@@H]4C[C@@H]4F)c3c2C)C[C@@H]1CF	S. flexneri, 2A 5503	=	6
Cc1c(N2C[C@H](CF)[C@H](N)C2)ccc2c(=O)c(C(=O)O)cn(C3CC3)c12	S. flexneri, 2A 5503	=	6
C[C@H]1COc2c(N3CCN(C)CC3)c(F)cc3c(=O)c(C(=O)O)cn1c23 [LVFX, levofloxacin, reference compound]	S. flexneri, 2A 5503	=	25
COc1c(N2C[C@H](CF)[C@H](N)C2)c(F)cc2c(=O)c(C(=O)O)cn(C3C[C@@H]3F)c12 (stereo partly drawn) [Comparative Compound, reference compound]	S. flexneri, 2A 5503	=	6
O=C(O)c1cn(C2CC2)c2cc(N3CCNCC3)c(F)cc2c1=O [CPFX, ciprofloxacin, reference compound]	S. flexneri, 2A 5503	=	6
Cc1c(N2C[C@@H](N)[C@@H](C(F)F)C2)c(F)cc2c(=O)c(C(=O)O)cn([C@@H]3C[C@@H]3F)c12	S. flexneri, 2A 5503	≤	3
Cc1c(N2C[C@H](CF)[C@H](N)C2)c(F)cc2c(=O)c(C(=O)O)cn([C@@H]3C[C@@H]3F)c12	S. flexneri, 2A 5503	≤	3

----------
The following compounds are listed with their measured MIC values.
Tested on: S. pneumoniae, J24
testDetails: Antibacterial activity (MIC), standard method of Japanese Society of Chemotherapy
Assay type: cell-based
conditionSet: Streptococcus pneumoniae, J24: penicillin resistant pneumococcus (moderate resistance)

compound	MIC, µg/mL
Cc1c(N2C[C@H](CF)[C@H](N)C2)ccc2c(=O)c(C(=O)O)cn(C3CC3)c12	0.1
Cc1c(N2C[C@H](CF)[C@H](N)C2)c(F)cc2c(=O)c(C(=O)O)cn([C@@H]3C[C@@H]3F)c12	0.025
Cc1c(N2C[C@H](CF)[C@H](N)C2)c(F)cc2c(=O)c(C(=O)O)cn(C3CC3)c12	0.025
COc1c(N2C[C@H](CF)[C@H](N)C2)c(F)cc2c(=O)c(C(=O)O)cn(C3C[C@@H]3F)c12 (stereo partly drawn) [Comparative Compound, reference compound]	0.025
Cc1c(N2C[C@@H](N)[C@@H](C(F)F)C2)c(F)cc2c(=O)c(C(=O)O)cn([C@@H]3C[C@@H]3F)c12	0.05
O=C(O)c1cn(C2CC2)c2cc(N3CCNCC3)c(F)cc2c1=O [CPFX, ciprofloxacin, reference compound]	0.1
CN[C@@H]1CN(c2c(F)cc3c(=O)c(C(=O)O)cn(C4CC4)c3c2C)C[C@@H]1CF	0.05
C[C@H]1COc2c(N3CCN(C)CC3)c(F)cc3c(=O)c(C(=O)O)cn1c23 [LVFX, levofloxacin, reference compound]	0.78
CN[C@@H]1CN(c2c(F)cc3c(=O)c(C(=O)O)cn([C@@H]4C[C@@H]4F)c3c2C)C[C@@H]1CF	0.05

----------
itemSmiles	melting point
CN[C@@H]1CN(c2c(F)cc3c(=O)c(C(=O)O)cn(C4CC4)c3c2C)C[C@@H]1CF	156 to 158 °C
Cc1c(N2C[C@H](CF)[C@H](N)C2)ccc2c(=O)c(C(=O)O)cn(C3CC3)c12	203 to 205 °C
Cc1c(N2C[C@H](CF)[C@H](N)C2)c(F)cc2c(=O)c(C(=O)O)cn(C3CC3)c12	160 to 165 °C
Cc1c(N2C[C@@H](N)[C@@H](C(F)F)C2)c(F)cc2c(=O)c(C(=O)O)cn([C@@H]3C[C@@H]3F)c12	214 to 216 °C

----------
Tested on: S. maltophilia, IID-1275
One threshold, 0.1 µg/mL, splits the recorded MIC values: lower ones are Yes, equal or higher ones are No.

compound	systemName	assignedCategory
COc1c(N2C[C@H](CF)[C@H](N)C2)c(F)cc2c(=O)c(C(=O)O)cn(C3C[C@@H]3F)c12 (stereo partly drawn) [Comparative Compound, reference compound]	S. maltophilia, IID-1275	No
CN[C@@H]1CN(c2c(F)cc3c(=O)c(C(=O)O)cn(C4CC4)c3c2C)C[C@@H]1CF	S. maltophilia, IID-1275	Yes
O=C(O)c1cn(C2CC2)c2cc(N3CCNCC3)c(F)cc2c1=O [CPFX, ciprofloxacin, reference compound]	S. maltophilia, IID-1275	No
Cc1c(N2C[C@H](CF)[C@H](N)C2)ccc2c(=O)c(C(=O)O)cn(C3CC3)c12	S. maltophilia, IID-1275	No
Cc1c(N2C[C@@H](N)[C@@H](C(F)F)C2)c(F)cc2c(=O)c(C(=O)O)cn([C@@H]3C[C@@H]3F)c12	S. maltophilia, IID-1275	Yes
C[C@H]1COc2c(N3CCN(C)CC3)c(F)cc3c(=O)c(C(=O)O)cn1c23 [LVFX, levofloxacin, reference compound]	S. maltophilia, IID-1275	No

----------
Entries with their measured MIC, system S. maltophilia, IID-1275:

itemSmiles	MIC, µg/mL
CN[C@@H]1CN(c2c(F)cc3c(=O)c(C(=O)O)cn([C@@H]4C[C@@H]4F)c3c2C)C[C@@H]1CF	0.1
Cc1c(N2C[C@H](CF)[C@H](N)C2)c(F)cc2c(=O)c(C(=O)O)cn([C@@H]3C[C@@H]3F)c12	0.1
Cc1c(N2C[C@H](CF)[C@H](N)C2)c(F)cc2c(=O)c(C(=O)O)cn(C3CC3)c12	0.1
